assayProtocol: AUC(last) in rat at 1 mg/kg, po
Type: ADME, organism-based, Plasma
Set-up: time 0 - last, dose 1 mg/kg, route oral
statedConditions: plasma
measuredProperty: AUC(0-t) (ng·h/mL)

CCCN1C(=O)N2C[C@@H](CC)N=C2c2[nH]c(C34CCC(O)(CC3)CC4)nc21.Cl | 800

P: CCCn1c(=O)c2nc(C34CCC(CCC(=O)O)(CC3)CC4)[nH]c2n(CCC)c1=O.Cl
Q: CCCN1C(=O)N2C[C@@H](C(C)C)N=C2c2[nH]c(C34CCC(O)(CC3)CC4)nc21.Cl
Compare the recorded AUC(0-t) of P and Q ; state which is larger. Use the label to indicate which entry you chose.
P
(P: 10000 ng·h/mL, Q: 810 ng·h/mL)

Each recorded value in this set is attributed to ChEMBL document CHEMBL1137356.
